# Experiment description: from Ebert, E.; Eckhardt, W.; Jakel, K.; Moser, P.; Sozzi, D.; Vogel, C. (1989). Quantitative structure-activity relationships of fungicidally active triazoles: analogs and stereoisomers of propiconazole …
# Reported conditions: pH 7.0
Label key: 1 means logD under 2; -1 means logD of 2 or more.

CCC1COC(Cn2cncn2)(c2ccc([N+](=O)[O-])cc2)O1 (stereo not given): 1
CCC1COC(Cn2cncn2)(c2ccc(NC(=O)c3ccc([N+](=O)[O-])cc3)cc2)O1 (stereo not given): -1
CCC1COC(Cn2cncn2)(c2ccc(-c3ccccc3)cc2)O1 (stereo not given): -1
CCC1COC(Cn2cncn2)(c2ccc(NC(=O)NC)cc2)O1 (stereo not given): 1

Problem: logD under 2? Item: OCC1COC(Cn2cncn2)(c2ccc(Cl)cc2Cl)O1 (stereo not given)
Solution: 1

Problem: logD under 2? Item: CCC1COC(Cn2cncn2)(c2ccc(NC(=O)C(F)(F)F)cc2)O1 (stereo not given)
Solution: 1

Problem: logD under 2? Item: CC1COC(Cn2cncn2)(c2ccc(-n3cncn3)cc2Cl)O1 (stereo not given)
Solution: 1

Problem: logD under 2? Item: CCC1COC(Cn2cncn2)(c2ccc(Cl)cc2Cl)O1 (stereo not given)
Solution: -1

Problem: logD under 2? Item: Cc1ccc(C2(Cn3cncn3)OCCO2)cc1
Solution: 1
